# system: human CCR7 (Homo sapiens, UniProt P32248)
# Construct: expressed in transfected cells
# Sequence (P32248 25-378): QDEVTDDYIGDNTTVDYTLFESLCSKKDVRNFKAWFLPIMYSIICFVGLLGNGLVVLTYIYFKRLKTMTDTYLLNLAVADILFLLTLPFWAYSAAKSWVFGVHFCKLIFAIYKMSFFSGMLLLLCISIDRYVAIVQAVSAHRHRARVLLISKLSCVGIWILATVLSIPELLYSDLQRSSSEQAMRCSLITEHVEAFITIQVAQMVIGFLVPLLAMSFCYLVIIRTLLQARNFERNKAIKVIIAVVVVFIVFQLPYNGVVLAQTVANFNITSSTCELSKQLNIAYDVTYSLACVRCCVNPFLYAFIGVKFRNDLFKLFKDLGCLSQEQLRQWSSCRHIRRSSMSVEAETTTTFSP
# test_summary: CCL19-induced calcium mobilization assay, U87.CD4 cells expressing CCR7
# Type: cell-based
# run_parameters: CCL19-induced calcium signaling; read-out: IC50 [μM] block CCL19 induced calcium signaling
recorded_endpoint: IC50

{"columns": ["molecule", "recorded_endpoint", "result"],
 "data": [
  ["CCn1cccc(NC(=O)N2CC(Cc3ccccc3Br)C2)c1=O", "IC50", "> 50 µM"],
  ["Cc1c(C(=O)NCC2CC2)sc2ncnc(NCCc3ccccn3)c12", "IC50", "> 50 µM"],
  ["CNC(=O)c1cccc(NC(=O)c2cn(Cc3ccccn3)nn2)c1C", "IC50", "> 50 µM"],
  ["CNC(=O)c1ccc(C=CC(=O)N(Cc2ccsc2)C2CC2)cc1", "IC50", "> 10 µM"],
  ["CCN(CC)S(=O)(=O)c1ccc2c(c1)cc(C(=O)NCc1ccc(C)o1)n2C", "IC50", "> 50 µM"]
]}

Query: For the molecule `C[C@@H](CNC(=O)N[C@H]1CCO[C@@H](C2CC2)C1)c1ccsc1` , what IC50 is on record?
Result: > 50 µM

Query: Another molecule: `Cc1cc(NCC(=O)N(C)Cc2ccco2)ccc1C(=O)N(C)C`
Result: > 10 µM

Query: Another molecule: `CN(C)[C@@H]1CCCC[C@H]1Nc1c(NCc2cc(C(F)(F)F)cc(C(F)(F)F)c2)c(=O)c1=O`
Result: > 50 µM

Query: Another molecule: `C[C@H](c1ccccc1)N(C)CC(=O)Nc1cccc(C(=O)N(C)C)c1`
Result: > 50 µM

Query: Another molecule: `Cc1cc(NCCc2nccs2)nc(-c2cccc([N+](=O)[O-])c2)n1`
Result: > 50 µM

Query: Another molecule: `CCOC(=O)c1c(C)c(CCC(=O)N[C@H](C)c2ccccc2)c(C)n1C`
Result: > 50 µM

Query: Another molecule: `OCc1ccccc1NC(=S)NCc1ccccc1`
Result: > 30 µM

Query: Another molecule: CNC(=O)c1ccc(C=CC(=O)N(C2CC2)C(C)c2ccco2)cc1 (stereo not drawn)
Result: > 10 µM

Query: Another molecule: `O=C(N[C@@H](c1nccs1)C1CC1)c1cc(N2CCOCC2)ccn1`
Result: > 50 µM

Query: Another molecule: `CN(C)C(=O)c1cc(NCC(=O)NCc2ccco2)ccc1F`
Result: > 10 µM

Query: Another molecule: `CN(C)S(=O)(=O)c1ccc(-c2nnc(C(=O)NCc3ccccn3)o2)cc1`
Result: > 50 µM

Query: Another molecule: Cc1ccc(C(C)NC(=O)C(=O)Nc2cc(C(=O)N(C)C)ccc2C)o1 (stereo not drawn)
Result: > 10 µM

Query: Another molecule: `CN(C)CC(C)(C)CNC(=O)C(=O)Nc1cccc(C(=O)N(C)C)c1`
Result: > 10 µM
